// provenance: paper PMC6930638

system: HT-29 colon adenocarcinoma; assay: MTT cell antiproliferative assay, HT-29 (without or with verapamil); type: cell-based, human; settings: Homo sapiens, HT-29; MTT, 72 h
pIC50: −log10 of the molar value.
Class met: pIC50 at least 6. Class not met: pIC50 below 6.

Below, 3 molecules whose answers are already recorded.
> print(dat)
                              smiles.record  category
1  C=C(c1ccnc(N(C)C)c1)c1cc(OC)c(OC)c(OC)c1       met
2    COc1ccc(C(=O)c2ccc(N(C)C)cc2)c(OC)c1OC       met
3    COc1cc(C(=O)c2ccc(N(C)C)cc2)cc(OC)c1OC       met

q: Test whether the molecule C=C(c1ccc(N(C)C)cc1)c1cc(OC)c(OC)c(OC)c1 records pIC50 of 6 or higher.
a: met

q: Test whether the molecule C=C(c1ccnc(N2CCCC2)c1)c1cc(OC)c(OC)c(OC)c1 records pIC50 of 6 or higher.
a: met

q: Test whether the molecule COc1ccc(C(=NO)c2ccc(N(C)C)cc2)c(OC)c1OC records pIC50 of 6 or higher.
a: met

q: Test whether the molecule COc1cc(C(=O)c2ccc(N3CCCC3)nc2)cc(OC)c1OC records pIC50 of 6 or higher.
a: not met

q: Test whether the molecule COc1cc(C(=NO)c2ccnc(N(C)C)c2)cc(OC)c1OC records pIC50 of 6 or higher.
a: not met

q: Test whether the molecule COc1cc(C(=O)c2cccc(N(C)C)c2)cc(OC)c1OC records pIC50 of 6 or higher.
a: met
